Test system: HS 578T breast
Method: NCI tumour cell line growth inhibition, 48 h; in the data active = GI50 below about 0.43 µM; inactive = the rest
Reply using exactly one outcome from class 1 = active, class 0 = inactive

>>> print(df.to_string())
                                   compound  category
0  COc1ccc2c3c([nH]c2c1)C(=O)c1nc(C)ccc1C3=O   class 0

Write down the call the test reported for this compound. Item: `O=C(c1ccccc1)N(C(=S)NCCc1ccc(Cl)cc1)c1ccc(Cl)cc1`
class 0

Give the logged outcome of this assay for the following compound: `Fc1cc(-c2csc3n[nH]c(=S)n23)c(Cl)cc1Cl`
class 0

Record lookup: outcome of this test for CC(=O)Oc1cn(-c2ccc(Cl)cc2)nc1C1=NN(C(C)=O)C(c2ccc(F)cc2F)O1 (stereo not given) ?
class 0

For `COc1cc(/C=C\c2cc(/C=C\c3ccc(O)c(OC)c3)n(C(=O)COc3ccc(Cl)cc3Cl)n2)ccc1O` , what call appears in the results of this test?
class 0

So what was the verdict on `COc1ccc(OC)c(N(CCN2C(=O)c3ccccc3C2=O)C(=O)CCl)c1` in this test?
class 0

Outcome? `CN1CCN(CCOc2ccc(-c3cnc4c(-c5cccc(F)c5F)cnn4c3)cc2)CC1`
class 0

Please state the recorded outcome for this compound: `COC(=O)c1ccc2[nH]c(O)c(C(=Nc3ccc(N(C)C(=O)CN4CCN(C)CC4)cc3)c3cccc(OC)c3)c2c1`
class 1

Could you kindly confirm the outcome this assay logged for `Cc1cc(Cl)ccc1Nc1nc(C(F)(F)F)ccc1C(=O)N/N=C/c1cccc(O)c1` ?
class 0

What classification did `c1ccc(-c2n(Cc3ccc4ccccc4n3)cc[n+]2Cc2ccc3ccccc3n2)cc1` end up with in this test?
class 0

###

As shown below, each of these molecules has a reported TGI value.
System: DU-145 prostate
Method: NCI tumour cell line growth inhibition, 48 h
Kindly provide the numeric value in µM only, without the unit symbol.

Form: Entry = `O=C1Nc2ccccc2/C1=C/C(=N/c1nnc(-c2ccc(Cl)cc2)s1)c1ccccc1` | System = DU-145 prostate | TGI = ____
6.9

Find the measured TGI: item `c1ccc(-c2ccc(-c3ccc(C4=NCCN4)cc3)o2)cc1` , target or system DU-145 prostate.
10.3

Hi! What's the reported TGI for `COC(=O)c1ccc2[nH]c(O)c(C(=Nc3ccc(N(C)C(=O)CN4CCN(C)CC4)cc3)c3cccc(OC)c3)c2c1` on DU-145 prostate?
9.32

Write down the reported TGI of `CN1CCN(CCCOc2ccc3ncnc(Nc4ccc(OCc5cccc(F)c5)c(Cl)c4)c3c2)CC1` , test system: DU-145 prostate.
2.35

Lookup: TGI / DU-145 prostate / Cn1c(CCC2(C)Cc3ccccc3C(=O)O2)cc2ccccc2c1=O (stereo not given)
59.8

###

Test system: SF-295 CNS
Method: NCI tumour cell line growth inhibition, 48 h
TGI values by entry

Worked examples follow.
Molecule	TGI
CC(C)NC(=O)OCc1c(COC(=O)NC(C)C)n(C)c2c1ccc1ccsc12	> 81.4 µM
COc1cc(Cl)cc(-c2nn(-c3cccc(NC(=O)c4cccc(C(F)(F)F)c4)c3)cc2-c2ccncc2)c1	> 100 µM
NC(N)=NCCCC(NC(=O)OCCCCCn1ccc(N)nc1=O)C(=O)O (centres undefined)	> 100 µM

Now let's try a different one.
Could you share which TGI value was measured for `O=S(=O)(O)c1ccc(-c2c3nc(c(-c4ccc(S(=O)(=O)O)cc4)c4ccc([nH]4)c(-c4ccc(S(=O)(=O)O)cc4)c4nc(c(-c5ccc(S(=O)(=O)O)cc5)c5ccc2[nH]5)C=C4)C=C3)cc1` ?
> 100 µM
